# System: CaOV-3
# Assay Protocol: CellTiter-Glo proliferation and viability assay
# Assay type: cell-based
# Protocol Conditions: Homo sapiens, read-out: Rel IC50
pIC50: −log10 of the molar value.

{"columns": ["Smiles Notation", "pIC50"],
 "data": [
  ["CNc1ncc2cc(-c3cc(NC(=O)NCCC(C)(C)C)c(F)cc3C)c(C)nc2n1", 8.27]
]}

###

# System: hematologic cancer cell lines with N-Ras mutations B-Raf wild type
# Assay Protocol: CellTiter-Glo proliferation and viability assay, N-Ras mutant hematologic panel
# Assay type: cell-based
# Protocol Conditions: Homo sapiens; 7 of the 9 hematologic cancer cell lines with N-Ras mutations B-Raf wild type
pIC50: −log10 of the molar value.
Metric Name: pIC50

{"columns": ["Smiles Notation", "Tested System", "Recorded Result"],
 "data": [
  ["CNc1ncc2cc(-c3cc(NC(=O)NCCC(C)(C)C)c(F)cc3C)c(C)nc2n1", "hematologic cancer cell lines with N-Ras mutations B-Raf wild type", "> 6.00"]
]}

###

# Tested on: CCRF-CEM
# Assay Protocol: CellTiter-Glo proliferation and viability assay
# Type: cell-based
# Protocol Conditions: Homo sapiens, read-out: Abs IC50
pIC50: −log10 of the molar value.
Metric Name: pIC50

{"columns": ["Molecule", "Recorded Result"],
 "data": [
  ["CNc1ncc2cc(-c3cc(NC(=O)NCCC(C)(C)C)c(F)cc3C)c(C)nc2n1 [Example 1]", 8.82]
]}

###

# Tested on: LOVO
# Assay Protocol: CellTiter-Glo proliferation and viability assay
# Format: cell-based
# Protocol Conditions: Homo sapiens, read-out: Rel IC50

{"columns": ["Smiles Notation", "Tested System", "Unit String", "IC50"],
 "data": [
  ["CNc1ncc2cc(-c3cc(NC(=O)NCCC(C)(C)C)c(F)cc3C)c(C)nc2n1", "LOVO", "nM", 0.12]
]}

###

# Tested on: DMS-53
# Assay Protocol: CellTiter-Glo proliferation and viability assay
# Assay type: cell-based
# Protocol Conditions: Homo sapiens, read-out: Abs IC50
Metric Name: IC50 (nM)

{"columns": ["Smiles Notation", "Tested System", "Recorded Result"],
 "data": [
  ["CNc1ncc2cc(-c3cc(NC(=O)NCCC(C)(C)C)c(F)cc3C)c(C)nc2n1", "DMS-53", 0.6]
]}

###

# Test system: HCT-116
# Assay Protocol: CellTiter-Glo proliferation and viability assay
# Protocol Conditions: Homo sapiens, HCT-116, read-out: proliferation and viability IC50

{"columns": ["Molecule", "IC50 [nM]"],
 "data": [
  ["CNc1ncc2cc(-c3cc(NC(=O)NCCC(C)(C)C)c(F)cc3C)c(C)nc2n1 [Example 1]", 178]
]}

###

# Test system: SK-OV-3
# Assay Protocol: CellTiter-Glo proliferation and viability assay
# Type: cell-based
# Protocol Conditions: Homo sapiens, read-out: Abs IC50

{"columns": ["Smiles Notation", "IC50"],
 "data": [
  ["CNc1ncc2cc(-c3cc(NC(=O)NCCC(C)(C)C)c(F)cc3C)c(C)nc2n1", "> 20 nM"]
]}

###

# Tested on: HT-29
# Assay Protocol: CellTiter-Glo proliferation and viability assay
# Type: cell-based
# Protocol Conditions: Homo sapiens; HT-29, B-Raf V600E, colon, CellTiter-Glo; read-out: IC50

{"columns": ["Smiles Notation", "Unit String", "IC50"],
 "data": [
  ["CNc1ncc2cc(-c3cc(NC(=O)NCCC(C)(C)C)c(F)cc3C)c(C)nc2n1", "nM", 7.3]
]}

###

# Tested on: SNU-449
# Assay Protocol: CellTiter-Glo proliferation and viability assay
# Assay type: cell-based
# Protocol Conditions: Homo sapiens, read-out: Rel IC50

{"columns": ["Smiles Notation", "IC50 (nM)"],
 "data": [
  ["CNc1ncc2cc(-c3cc(NC(=O)NCCC(C)(C)C)c(F)cc3C)c(C)nc2n1", 2.01]
]}

###

# System: SK-Mel-28
# Assay Protocol: CellTiter-Glo proliferation and viability assay
# Format: cell-based
# Protocol Conditions: Homo sapiens; SK-Mel-28, B-Raf V600E, melanoma, CellTiter-Glo; read-out: IC50
pIC50: −log10 of the molar value.

{"columns": ["Smiles Notation", "pIC50"],
 "data": [
  ["CNc1ncc2cc(-c3cc(NC(=O)NCCC(C)(C)C)c(F)cc3C)c(C)nc2n1", 7.54]
]}

###

# System: A549
# Assay Protocol: CellTiter-Glo proliferation and viability assay
# Assay type: cell-based
# Protocol Conditions: Homo sapiens, read-out: Rel IC50
Metric Name: IC50 (nM)

{"columns": ["Compound", "Recorded Result"],
 "data": [
  ["CNc1ncc2cc(-c3cc(NC(=O)NCCC(C)(C)C)c(F)cc3C)c(C)nc2n1 [Example 1]", 2.07]
]}

###

# System: SW900
# Assay Protocol: CellTiter-Glo proliferation and viability assay
# Type: cell-based
# Protocol Conditions: Homo sapiens, read-out: Rel IC50
Metric Name: IC50 (nM)

{"columns": ["Smiles Notation", "Metric Name", "Recorded Result"],
 "data": [
  ["CNc1ncc2cc(-c3cc(NC(=O)NCCC(C)(C)C)c(F)cc3C)c(C)nc2n1", "IC50", 0.23]
]}

###

# System: BxPC-3
# Assay Protocol: CellTiter-Glo proliferation and viability assay
# Type: cell-based
# Protocol Conditions: Homo sapiens, read-out: Rel IC50
Metric Name: IC50 (nM)

{"columns": ["Smiles Notation", "Unit String", "Recorded Result"],
 "data": [
  ["CNc1ncc2cc(-c3cc(NC(=O)NCCC(C)(C)C)c(F)cc3C)c(C)nc2n1", "nM", 0.23]
]}

###

# Test system: NCI-H23
# Assay Protocol: CellTiter-Glo proliferation and viability assay
# Assay type: cell-based
# Protocol Conditions: Homo sapiens, read-out: Abs IC50
pIC50: −log10 of the molar value.

{"columns": ["Smiles Notation", "Tested System", "pIC50"],
 "data": [
  ["CNc1ncc2cc(-c3cc(NC(=O)NCCC(C)(C)C)c(F)cc3C)c(C)nc2n1", "NCI-H23", 8.20]
]}

###

# Tested on: huH-1
# Assay Protocol: CellTiter-Glo proliferation and viability assay
# Assay type: cell-based
# Protocol Conditions: Homo sapiens, read-out: Abs IC50
Metric Name: IC50 (nM)

{"columns": ["Compound", "Recorded Result"],
 "data": [
  ["CNc1ncc2cc(-c3cc(NC(=O)NCCC(C)(C)C)c(F)cc3C)c(C)nc2n1 [Example 1]", 1.99]
]}

###

# System: LN 18
# Assay Protocol: CellTiter-Glo proliferation and viability assay
# Format: cell-based
# Protocol Conditions: Homo sapiens, read-out: Rel IC50

{"columns": ["Compound", "IC50"],
 "data": [
  ["CNc1ncc2cc(-c3cc(NC(=O)NCCC(C)(C)C)c(F)cc3C)c(C)nc2n1 [Example 1]", "> 20 nM"]
]}

###

# Tested on: HT-29
# Assay Protocol: CellTiter-Glo proliferation and viability assay
# Type: cell-based
# Protocol Conditions: Homo sapiens, HT-29; read-out: Rel IC50
Metric Name: IC50 (nM)

{"columns": ["Compound", "Unit String", "Recorded Result"],
 "data": [
  ["CNc1ncc2cc(-c3cc(NC(=O)NCCC(C)(C)C)c(F)cc3C)c(C)nc2n1 [Example 1]", "nM", 0.06]
]}

###

# Tested on: NCI-H1975
# Assay Protocol: CellTiter-Glo proliferation and viability assay
# Type: cell-based
# Protocol Conditions: Homo sapiens, read-out: Abs IC50

{"columns": ["Compound", "Unit String", "IC50"],
 "data": [
  ["CNc1ncc2cc(-c3cc(NC(=O)NCCC(C)(C)C)c(F)cc3C)c(C)nc2n1 [Example 1]", "nM", 0.93]
]}

###

# System: NCI-H1694
# Assay Protocol: CellTiter-Glo proliferation and viability assay
# Format: cell-based
# Protocol Conditions: Homo sapiens, read-out: Abs IC50
pIC50: −log10 of the molar value.
Metric Name: pIC50

{"columns": ["Smiles Notation", "Recorded Result"],
 "data": [
  ["CNc1ncc2cc(-c3cc(NC(=O)NCCC(C)(C)C)c(F)cc3C)c(C)nc2n1", 7.82]
]}

###

# Tested on: MOLT-4
# Assay Protocol: CellTiter-Glo proliferation and viability assay
# Format: cell-based
# Protocol Conditions: Homo sapiens, read-out: Rel IC50
pIC50: −log10 of the molar value.

{"columns": ["Smiles Notation", "pIC50"],
 "data": [
  ["CNc1ncc2cc(-c3cc(NC(=O)NCCC(C)(C)C)c(F)cc3C)c(C)nc2n1", 8.92]
]}

###

# Tested on: PLC-PRF-5
# Assay Protocol: CellTiter-Glo proliferation and viability assay
# Assay type: cell-based
# Protocol Conditions: Homo sapiens, read-out: Rel IC50
Metric Name: IC50 (nM)

{"columns": ["Compound", "Recorded Result"],
 "data": [
  ["CNc1ncc2cc(-c3cc(NC(=O)NCCC(C)(C)C)c(F)cc3C)c(C)nc2n1 [Example 1]", 11.7]
]}
